Test System: Fuc(a1-2)Gal6S(b1-3)GlcNAc
Assay Name: glycan array binding signal (z-score within array); higher = stronger binding
Stated Conditions: glycan notation: IUPAC condensed, linker removed
About 410 targets per protein were measured; listed, in parts, are those with the strongest signals and a random draw of the rest.
The threshold is inclusive: glycan array binding signal (z-score) of exactly -0.4 counts as label 1; values below receive label 0.

INSERT INTO assay_data (binder, assigned_label) VALUES
  ('Gal 1 (Mus musculus), P16045 (protein) MACGLVASNLNLKPGECLKVRGEVASDAKSFVLNLGKDSNNLCLHFNPRFNAHGDANTIVCNTKEDGTWGTEHREPAFPFQPGSITEVCITFDQADLTIKLPDGHEFKFPNRLNMEAINYMAADGDFKIKCVAFE', 'label 0'),
  ('HPL (Tachypleus tridentatus) (protein) MEDDCTCVTDRSLEGKLMKHPSTPAVYQILDGCRRLVPNPPTYNNIYKNWECIQSNILEKLLCKCDSLSNGAELIKGSGDTVYLLSNGVKRPIADPETFNGFCFDWNKIKTYSDIVINSLSTGPIIIIKHHHHHH', 'label 1'),
  ('Mermaid2 (Stilbonema majum) (protein) MGSSHHHHHHSSGLVPRGSHMAASGWLRSPQGTVVKLYRRSLSWSKADEFCKDVDGRLVVDRTADMHLFLIKNVLKEKKSRVWVGLRRTAPHSRTWIWSDGTRQNEDDLNTNLWLRDEPNDAAGEEECALFMYSPWEKAWGLNDYLCRGGCRSYQFICEKGIR', 'label 1'),
  ('MPA (Maclura pomifera), P18674 (protein) GVTFDDGAYTGIREINFEYNSETAIGGLRVTYDLNGMPFVAEDHKSFITGFKPVKISLEFPSEYIVEVSGYVGKVEGYTVIRSLTFKTNKQTYGPYGVTNGTPFSLPIENGLIVGFKGSIGYWLDYFSIYLSL', 'label 1'),
  ('EPL1 (Trichoderma atroviride), A0PCX2 (protein) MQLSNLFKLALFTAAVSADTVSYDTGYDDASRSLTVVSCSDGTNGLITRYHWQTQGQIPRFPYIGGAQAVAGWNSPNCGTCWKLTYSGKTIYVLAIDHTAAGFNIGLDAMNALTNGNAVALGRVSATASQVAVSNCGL', 'label 1');

The measurements presented in this section are drawn from the supplement of paper PMC8728848.
